# Test system: K4 kissing-loop RNA reporter;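 further: bound reporter read as fluorescence of individual clusters on recovered sequencing chips by microscopy, with normalized cluster intensities fitted with a binding model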
# PROTOCOL_NOTES: apparent KD of K4 kissing-loop reporter; higher = weaker reporter binding
# MEASUREMENT_SETUP: Eterna round: R107; input ligand: tryptophan 2.4 mM
Task for the reader: assign each of the following sequences its reported apparent KD of K4 kissing-loop reporter.
Give bare numbers, in nM.

Some sequences with recorded apparent KD of K4 kissing-loop reporter:
INSERT INTO results (sequence, measure, unit_abbrev, val) VALUES
  ('AAGUGAUGUUGUAGUGAUGUUGUGAUGUUGCAGGAUAUAUAGUGAUGUAGAAGGGUAAGGACUGUUUUUUUUUUUGAGUGAUGUU [ookooyzrmullin]', 'apparent KD of K4 kissing-loop reporter', 'nM', 73.3),
  ('AUUAAUUUCAGAGGAUAUCGUAAUUUUAUUUAAUUUAUUCAUUUGUGCAGUGAUGUUGCUAAUAUUCGAGAAGGCUGAUUUAUAA [whbob_Ex_FMNB__2th223]', 'apparent KD of K4 kissing-loop reporter', 'nM', 65),
  ('AGACUACUGACAGGAUAUAACAUACUAGCUCGUAUACCAAAGGUAUACGAGCACCUUCUAGUGAUGUUAGAAGGGUCGGUAGUCA [Omei KL FMN B Exc B v2]', 'apparent KD of K4 kissing-loop reporter', 'nM', 310),
  ('UGGGUGUAGUGAUGUUAUAUAGAGAAUGAUACCAGCUUAGAGAGGAGCCCUUGGCAGCGUAGACGAGUAUCAUUGGAGGAGGAGG [#22 K4 Theophylline A Exclusion]', 'apparent KD of K4 kissing-loop reporter', 'nM', 647);

Provide apparent KD of K4 kissing-loop reporter for all items below, preserving their order.
1. AUUAUAUAGGCGGCCGCCACUAGUGAUGUUAGUGACUUUAUGAAAACAUAAAGAAUAAAAUAAUAUAGGACCGGGCCAUAAUAUU [AstrosExTryB#5]
2. GUUACGCAUGGAAGGAGCGCACUCCGAUUGGUCGACACAGUGAUGUUGUGGUUCGUUCGAAUGCAGGUAGGUCGCCAUGUGUAAC [Ex Arginine B K4 18]

[432, 150]

---

# Test system: MS2 coat protein
# PROTOCOL_NOTES: apparent KD of MS2 coat protein; designed switch direction (-1 OFF switch, 1 ON switch): -1; higher = weaker reporter binding
# MEASUREMENT_SETUP: input ligand: none
Task for the reader: assign each of the following sequences its reported apparent KD of MS2 coat protein.
Answers are plain numbers, in nM.

Some sequences with recorded apparent KD of MS2 coat protein:
INSERT INTO assay_data (sequence, measured_on, unit_abbrev, val) VALUES
  ('AAAGAGUGAGGAUAUACAUGAGGAUCACCCAUGUACGUAAUACAAUACGGGUGACGACGUAGAAGGCAUUGCUG [Eternabot (Original) Solution 28] (Eterna round: R97, puzzle: Exclusion 3)', 'MS2 coat protein', 'nM', 781),
  ('ACCUCACAUGAGGAUCACCCAUGUCAGGAUAUCUAAUAUAGUAGCGUUCCCGACGCUAAGAGAAGGGACAUUAA [EX1 #32] (Eterna round: R97, puzzle: Exclusion 1)', 'MS2 coat protein', 'nM', 13.9),
  ('AUAUUGUGAGGAUAUGAACUUAGUAUCGAAAGAUACUAAGUACAGAAGGCACAUGAGGAUCACCCAUGUUUCUC [Long static hairpin v2] (Eterna round: R97, puzzle: Exclusion 4)', 'MS2 coat protein', 'nM', 85.7),
  ('GGCAUGCAAGGAUAUACUUGCAGUGAUGUUCGAUAAAUUCUACUUGAGGAUCACCCAAGUAGAAGGUGCAUGCC [Exclusion 2 (Mod4 JL EX2 4.74 Vienna UCT mod of Mamaed)] (Eterna round: R97, puzzle: Exclusion 2)', 'MS2 coat protein', 'nM', 27.3);

# input for lookup
Data request, read-out apparent KD of MS2 coat protein, for CCUCUACAUGAGGAUCACCCAUGUGAGGAUAUAAGAUUGCGAAUUCCGCACUACGGUCUUAGAAGGCGCGUGGA [Riarve] (Eterna round: R96, puzzle: Exclusion 1) 20.3
